Tested on: WS1 normal skin fibroblasts
Protocol notes: Cell viability determination via MTS assay, WS1
Type: cell-based
Experimental conditions: Homo sapiens, Skin fibroblast; WS1, 48 h treatment; read-out: IC50 (reduce cell viability by 50%)
Result type: IC50

INPUT: Request: IC50, test system WS1 normal skin fibroblasts, entry CCCCCCCCCCCCC/C=C1/C(=O)O[C@@](C)(OC)[C@@H]1O [subamolide B]
OUTPUT: > 20 µM

###

Tested on: A-431 (epidermoid carcinoma) cells
Protocol notes: Cell viability determination via MTS assay, A-431
Type: cell-based
Experimental conditions: Homo sapiens; A-431, 48 h treatment; read-out: IC50 (reduce cell viability by 50%)
Protocol: The human cutaneous squamous cell carcinoma cell line SCC12 (kindly provided by Prof. Xiaoqi Wang, Northwestern University, USA) was grown in DMEM/F-12 (1 : 1) medium. […] The effect of subamolide B on cell viability was mostly evaluated using CellTiter 96 AQueous Non-Radioactive Cell Proliferation Assay (MTS assay) kit (Promega, Madison, WI, USA) as previously described. […]
Result type: IC50 (µM)
Report only the number, with the unit µM understood.

INPUT: Look up IC50 for this compound: CCCCCCCCCCCCC/C=C1/C(=O)O[C@@](C)(OC)[C@@H]1O [subamolide B]
OUTPUT: 13.3
